Each recorded value in this set is attributed to a protein production outcome set (Wang et al. 2014).

- testName: label from the status in PepcDB records
experimentalReadout: protein production

Supply measured protein production of MDIKNGLFIIGVIPTILFAVLTFIFWWKIRKLKDLRTLRLGRLSFFALLFLWITINGIIGSGLVLTELHQNVLLLLLIAEAVVMFLIIPMIIGIIVPISIVVLTIKMWRRESKSIGNLLLAIVVLTFLVVDWIHLSMGRLPDSWIWLKILGMVYPILSIYLAWQFGIFFLSSWVYGRRVRKQRANYYVVLGAGLIQGEHVGKLLGNRILAAVKAVRDNETILVFSGGQGPDEKVSEARAMQRYAVEVLGFPIERTMLEDQSRTTYENLFFSSQLIREKFLFFTSDYHVFRAALFAAMLKLEAQGGKGGKTAMYYRVPAFIREFIAVLNYEKKKHMIRVGIIVAIFLSIAIVSQIGYFWNQR in your reply.
failed

Supply measured protein production of MIPQIPLPMLSEGKDCKIREVLAGKALKRRLTEMGFTPSSSIRLIGCERGNLLVNVNGARYALGKGMAMKIMVEPD in your reply.
failed

----------
- testName: label from the status in PepcDB records
experimentalReadout: protein production

Examples with answers:
Supply measured protein production of MDPYFELRLSELKSIPVVTWLQFSIDNAREPGILVQSGQIWALLPPELTEKTRCFAIELGNECMRLKDYDNDDGKRVWLSDDELTRFIEQAETPHQRLAFLLAGRVGLRRSEIIEVCPQDLVDGPTGDHIRVWESYAKRDKYREPPVPQEVVTIAETLAYQQDDDEPLLDVAGSTVYRWVRRAADELEEETGDRGWQYLDVHDLRRTWGTYLLEQGVIPSVVMSFGGWEDWDTFRKHYLGEFSPEAIRRERGKVDFLEGGDESAEVVHPGTMPPASHHTAD in your reply.
failed

Supply measured protein production of MNNKLKTQAVEQLFQAILSLKDLDEAYDFFEDVCTINEILSLSQRFEVAKMLREHRTYLDIAEKTGASTATISRVNRSLNYGNDGYDRVFERLGMLEKESEDNK in your reply.
not failed

Supply measured protein production of MQGGSSGIGYGLKYQSRCISDVKADTDYTSFLTGTLSLKEENEVHLLRLSSGGSELICEGLFSHPNEIWDLASCPFDQRIFSTVFSTGESFGAAIWQIPELYGQLNSPQLERVASLDAHVGKINCVLWWPSGRCDKLISIDEQNIFLWSLDCSKKSAEVLSKDSAGMLHSLSGGAWDPHDVNAVAATGESSVQFWDLRTMKKVNSIEHAHVRGVDYNPKREHILVTAEDESGIHVWDLRKAKVPVQELPGHTHWTWAVRCNPEYDGLILSAGTDSVVNLWYASATSSDDKTSESPVESTRQRVNPLLNSYTDYEDSVYGLAWSSREPWVFASLSYDGRVIIESVKPFLPRI in your reply.
failed

Supply measured protein production of MNKDLKAIKWFITTQILKDPFNPAYATFKVTSRCNLRCTFCSPSYYSGELGEGSTERVKKIIDNLRDSSIVVLSFEGGEPTYRPDILDLLEYAHDGSFYIMLTTNGYRLKDEDFLTKLADKIDFLHYSIDEYHWNVKELENLCRFRKYGLKVNVQTVVTRYNLYKLEEKVRKVAECGYKILAMPAVDYPNSKVKLAPDPYEFYKVLYDLKRKYGSTLNNSWGFINAIIGKVPKRVVSYAITIYPNGDLPYPDDINGEIVGNVAEEPLNKILQSSKVKELQQKMLENQAKFEYLHLQTASFNNIRDLASYVSEMLRWRFTGRA in your reply.
failed

More entries:
Supply measured protein production of MNNKIYFTPGPSELYPTVRQHMITALDEKIGVISHRSKKFEEVYKTASDNLKTLLELPSNYEVLFLASATEIWERIIQNCVEKKSFHCVNGSFSKRFYEFAGELGREAYKEEAAFGKGFYPADITVPADAEIICLTHNETSSGVSMPVEDINTFRDKNKDALIFVDAVSSLPYPKFDWTKIDSVFFSVQKCFGLPAGLGVWILNDRVIEKSKALLAKRKSIGTYHTIPSMLEKARVNQTPETPNAMNIFLLGKVTGDMLQISADGIRKQTEEKAALINTYIESSKVFSFGVEDAKLRSMTTIVANTTMLPGEINKILEPFDMAVGAGYGSKKETQIRIANFPAHSLEQVHKLVQTLKEKIG in your reply.
not failed
